// CD28 MFI at 33.3 nM lookup, one value per entry
# assayed.target: CD28 (Homo sapiens, UniProt P10747)
# assay: Flow binding to Jurkat/IL2 reporter cells (CD28)
# Set-up: host or cells: Jurkat cells expressing an IL-2-luciferase reporter
# experimental.conditions: Table E10; 33.3 nM; Jurkats (CD28)
Lab note: jot down the number only; don't add units.

molecule="E35D/M47V/T62S/L85Q (protein) VIHVTKEVKEVATLSCGHNVSVEELAQTRIYWQKDKKMVLTMMSGDVNIWPEYKNRTIFDISNNLSIVILALRPSDEGTYECVVQKYEKDAFKREHLAEVTLSVKAD" obs_value=99.4

Here's the next entry for you.
Field request: CD28 MFI at 33.3 nM | item: E35D/L97R (protein) VIHVTKEVKEVATLSCGHNVSVEELAQTRIYWQKDKKMVLTMMSGDMNIWPEYKNRTIFDITNNLSIVILALRPSDEGTYECVVLKYEKDAFKREHRAEVTLSVKAD
44.6
